B1: FCHO1 (parent)
chain: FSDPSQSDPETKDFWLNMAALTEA

variants of: B1; assay: protein stability index of a GFP-peptide fusion (GPS, HEK-293T) (PSI 1-6); higher = more stable; details: c terminus: a fixed tail appended;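 further: lentivirally expressed fusions sorted by FACS into six bins by GFP to DsRed ratio, PSI derived from sequencing read proportions per bin multiplied by bin number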
# label = true if protein stability index >= 3 else false

Query block: Given the entry FSDPSQSDPETKDFWLNMKALTEA , answer whether its protein stability index meets or surpasses 3.
Result block: false

Query block: protein stability index >= 3 for FSDPSQSAPETKDFWLNMAALTEA ?
Result block: false

Query block: Could you tell me if the measured protein stability index of FSDPSMSDPETKDFWLNMAALTEA reaches 3 or more?
Result block: false

Query block: State whether the measured protein stability index reaches 3, counting equality as reaching it, for FSDPSQSDPETKDFWLNMAALREA
Result block: false

Query block: hey, is protein stability index for this one >= 3? FSDPSNSDPETKDFWLNMAALTEA
Result block: false

Query block: Decide: protein stability index of FSDPSQSDPETKDFMLNMAALTEA >= 3?
Result block: true

Query block: State whether the measured protein stability index reaches 3, counting equality as reaching it, for FSDPSQSDPETKDFWLNMAALTKA
Result block: false
